target: CYP 2D6 (Homo sapiens (Human)); type: in vitro ADME; conditions: microsomes, 10 min
Sequence (P10635 whole entry): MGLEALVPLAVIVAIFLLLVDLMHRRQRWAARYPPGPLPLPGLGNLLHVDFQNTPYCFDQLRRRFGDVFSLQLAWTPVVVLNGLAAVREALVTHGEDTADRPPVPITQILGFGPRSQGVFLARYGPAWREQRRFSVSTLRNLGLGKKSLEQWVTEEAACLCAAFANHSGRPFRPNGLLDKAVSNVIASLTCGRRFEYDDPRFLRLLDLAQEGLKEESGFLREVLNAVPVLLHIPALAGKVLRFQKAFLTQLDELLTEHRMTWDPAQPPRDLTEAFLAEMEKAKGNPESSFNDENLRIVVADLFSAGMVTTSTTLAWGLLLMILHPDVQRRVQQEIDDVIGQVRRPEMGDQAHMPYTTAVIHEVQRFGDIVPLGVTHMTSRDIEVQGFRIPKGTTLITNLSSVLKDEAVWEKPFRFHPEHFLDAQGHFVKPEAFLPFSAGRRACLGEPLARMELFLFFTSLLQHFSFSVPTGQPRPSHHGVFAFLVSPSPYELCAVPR
pIC50: −log10 of the molar value. Starred links: 1 amine or outer side, 2 acyl side, 3 side chain; linkers in the order of their positions; H or OH if unused. Non-standard residues stand in square brackets, D forms with d. Residues, ends and D or L forms follow the SMILES beside them. *: point of attachment. Azetidine3carboxylic = O=C(C1CN([*:1])C1)[*:2]; Pyrrolidine3carbonyl(3S) = O=C([C@H]1CCNC1)*; dBta = N[C@H](Cc1csc2ccccc12)C(=O)O; dTle = CC(C)(C)[C@@H](N)C(=O)O; X1 = N[C@H]1CCC[C@H]1C(=O)*; dAbu = CC[C@@H](N)C(=O)O; Api = NC1(C(=O)O)CCNCC1; dAze = O=C(O)[C@H]1CCN1; βAla = NCCC(=O)O
readout.kind: pIC50

Record excerpt, results attached:
# compound, pIC50
data = [
    ("NC(=O)C1(NC(=O)[C@H](Cc2ccccc2)NC(=O)[C@@H](Cc2c[nH]c3ccccc23)NC(=O)[C@@H](Cc2csc3ccccc23)NC(=O)[C@H]2CCNC2)CCNCC1 [Compound 26] ({Pyrrolidine3carbonyl(3S)}-[dBta][dW]F[Api]-NH2)", "< 4.30"),
    ("NCCCC[C@@H](NC(=O)[C@H](Cc1ccccc1)NC(=O)[C@@H](Cc1c[nH]c2ccccc12)NC(=O)[C@@H](Cc1csc2ccccc12)NC(=O)CCN)C(N)=O [Compound 46] (H-[βAla][dBta][dW]F[dK]-NH2)", "< 4.30"),
    ("NC(=O)C1(NC(=O)[C@H](Cc2ccccc2)NC(=O)[C@@H](Cc2c[nH]c3ccccc23)NC(=O)[C@@H](Cc2csc3ccccc23)NC(=O)[C@@H]2CCC[C@@H]2N)CCNCC1 [Compound 21] (X1-[dBta][dW]F[Api]-NH2)", "< 4.30"),
    ("NCC(=O)N[C@H](Cc1csc2ccccc12)C(=O)N[C@H](Cc1c[nH]c2ccccc12)C(=O)N[C@@H](Cc1ccccc1)C(=O)NC1(C(N)=O)CCNCC1 [Compound 11] (H-G[dBta][dW]F[Api]-NH2)", "< 4.30"),
    ("CC(C)C[C@@H](N)C(=O)N[C@H](Cc1csc2ccccc12)C(=O)N[C@H](Cc1c[nH]c2ccccc12)C(=O)N[C@@H](Cc1ccccc1)C(=O)NC1(C(N)=O)CCNCC1 [Compound 14] (H-[dL][dBta][dW]F[Api]-NH2)", "< 4.30"),
    ("NC(=O)C1(NC(=O)[C@H](Cc2ccccc2)NC(=O)[C@@H](Cc2c[nH]c3ccccc23)NC(=O)[C@@H](Cc2csc3ccccc23)NC(=O)C2CNC2)CCNCC1 [Compound 23] (Azetidine3carboxylic-[dBta][dW]F[Api]-NH2)", "< 4.30"),
]

# compound NC(=O)C1(NC(=O)[C@H](Cc2ccccc2)NC(=O)[C@@H](Cc2c[nH]c3ccccc23)NC(=O)[C@@H](Cc2csc3ccccc23)NC(=O)[C@H]2CCN2)CCNCC1 [Compound 25] (H-[dAze][dBta][dW]F[Api]-NH2) ; its pIC50 = < 4.30

# compound CC[C@@H](N)C(=O)N[C@H](Cc1csc2ccccc12)C(=O)N[C@H](Cc1c[nH]c2ccccc12)C(=O)N[C@@H](Cc1ccccc1)C(=O)N[C@H](CCCCN)C(N)=O [Compound 32] (H-[dAbu][dBta][dW]F[dK]-NH2) ; its pIC50 = 4.61

# compound "NC(=O)[C@H](Cc1ccccc1)NC(=O)[C@@H](Cc1c[nH]c2ccccc12)NC(=O)[C@@H](Cc1csc2ccccc12)NC(=O)[C@H]1CCNC1" ; its pIC50 = < 4.30

# compound NCCCC[C@@H](NC(=O)[C@H](Cc1ccccc1)NC(=O)[C@@H](Cc1c[nH]c2ccccc12)NC(=O)[C@@H](Cc1csc2ccccc12)NC(=O)[C@@H]1CCCN1)C(N)=O [Compound 45] (H-P[dBta][dW]F[dK]-NH2) ; its pIC50 = < 4.30

# compound CC(C)[C@@H](N)C(=O)N[C@H](Cc1csc2ccccc12)C(=O)N[C@H](Cc1c[nH]c2ccccc12)C(=O)N[C@@H](Cc1ccccc1)C(=O)NC1(C(N)=O)CCNCC1 [Compound 13] (H-[dV][dBta][dW]F[Api]-NH2) ; its pIC50 = < 4.30

# compound "NC(=O)[C@H](Cc1ccccc1)NC(=O)[C@@H](Cc1c[nH]c2ccccc12)NC(=O)[C@@H](Cc1csc2ccccc12)NC(=O)[C@@]12CNC[C@@H]1C2" ; its pIC50 = < 4.30

# compound CC(C)(C)[C@@H](N)C(=O)N[C@H](Cc1csc2ccccc12)C(=O)N[C@H](Cc1c[nH]c2ccccc12)C(=O)N[C@@H](Cc1ccccc1)C(=O)N[C@H](CCCCN)C(N)=O [Compound 47] (H-[dTle][dBta][dW]F[dK]-NH2) ; its pIC50 = < 4.30

# compound "NCC1(C(=O)N[C@H](Cc2csc3ccccc23)C(=O)N[C@H](Cc2c[nH]c3ccccc23)C(=O)N[C@@H](Cc2ccccc2)C(N)=O)CCC1" ; its pIC50 = < 4.30

# compound "NC(=O)[C@H](Cc1ccccc1)NC(=O)[C@@H](Cc1c[nH]c2ccccc12)NC(=O)[C@@H](Cc1csc2ccccc12)NC(=O)[C@@H]1CCC[C@@H]1N" ; its pIC50 = < 4.30

# compound C[C@@H](N)C(=O)N[C@H](Cc1csc2ccccc12)C(=O)N[C@H](Cc1c[nH]c2ccccc12)C(=O)N[C@@H](Cc1ccccc1)C(=O)NC1(C(N)=O)CCNCC1 [Compound 12] (H-[dA][dBta][dW]F[Api]-NH2) ; its pIC50 = < 4.30
